These data points were gathered from patent EP2147919A1.

tested on: MATIN; test: Herbicidal action post-emergence (greenhouse pot test, visual rating); assay type: in vivo, Matricaria inodora; settings: Nachauflauf, 1280 g/ha, visual rating after ca. 3 weeks vs untreated controls
Metric: herbizide Wirkung MATIN (%)
Just the number in %, nothing appended.

INPUT: Any idea what its herbizide Wirkung MATIN is? The compound is COc1ccc(C(NC(=O)c2c(C)nn(C)c2Cl)c2ccon2)c(F)c1 (stereo not shown) [Beispiel 261]
OUTPUT: 100

INPUT: Any idea what its herbizide Wirkung MATIN is? The compound is Cc1cc(C(=O)NC(c2ccc(Cl)cc2)c2ccon2)cs1 (stereo not shown) [Beispiel 295]
OUTPUT: 80

INPUT: Any idea what its herbizide Wirkung MATIN is? The compound is Cc1cc(OC(C)C)c(C(=O)NC(c2ccc(F)c(F)c2)c2ccon2)c(Cl)n1 (racemic) [Beispiel 174]
OUTPUT: 90

INPUT: Any idea what its herbizide Wirkung MATIN is? The compound is Cc1nn(C)cc1C(=O)NC(c1ccc(Cl)cc1)c1ccon1 (stereo not shown) [Beispiel 265]
OUTPUT: 80

###

Tested on: STEME
Assay: Herbicidal action post-emergence (greenhouse pot test, visual rating)
Assay type: in vivo, Stellaria media
Details: Nachauflauf, 1280 g/ha, visual rating after ca. 3 weeks vs untreated controls
Source text: Samen von mono- bzw. dikotylen Unkraut- bzw. Kulturpflanzen werden in Holzfasertöpfen in sandigem Lehmboden ausgelegt, mit Erde abgedeckt und im Gewächshaus unter guten Wachstumsbedingungen angezogen. 2 bis 3 Wochen nach der Aussaat werden die Versuchspflanzen im Einblattstadium behandelt. Die in Form von benetzbaren Pulvern (WP) oder als Emulsionskonzentrate (EC) formulierten erfindungsgemäßen Verbindungen werden dann als wäßrige Suspension bzw. […]
Metric: herbizide Wirkung STEME (%)
Just the number in %, nothing appended.

INPUT: Any idea what its herbizide Wirkung STEME is? The molecule is Cc1ccc(C(=O)NC(c2ccc(Cl)cc2)c2ccon2)cn1 (stereo not shown)
OUTPUT: 100

INPUT: Any idea what its herbizide Wirkung STEME is? The molecule is COc1ccc(C(NC(=O)c2ccc(C)nc2)c2ccon2)c(F)c1 (stereo not shown)
OUTPUT: 100

INPUT: Any idea what its herbizide Wirkung STEME is? The molecule is COc1ccc(C(NC(=O)c2cn(C)nc2C)c2ccon2)c(F)c1 (stereo not shown)
OUTPUT: 100

INPUT: Any idea what its herbizide Wirkung STEME is? The molecule is Cc1nn(C)cc1C(=O)NC(c1ccc(Cl)cc1)c1ccon1 (stereo not shown)
OUTPUT: 100

INPUT: Any idea what its herbizide Wirkung STEME is? The molecule is Cc1cc(C(=O)NC(c2ccc(Cl)cc2)c2ccon2)cs1 (stereo not shown)
OUTPUT: 100

INPUT: Any idea what its herbizide Wirkung STEME is? The molecule is Cc1cc(OC(C)C)c(C(=O)NC(c2ccc(F)c(F)c2)c2ccon2)c(Cl)n1 (racemic)
OUTPUT: 100

INPUT: Any idea what its herbizide Wirkung STEME is? The molecule is COc1ccc(C(NC(=O)c2c(C)nn(C)c2Cl)c2ccon2)c(F)c1 (stereo not shown)
OUTPUT: 100

###

assay: Log P; type: physicochemical
For each entry below, report its logP value.

INPUT: Any idea what its logP is? The molecule is Cc1cc(OC(C)C)c(C(=O)NC(c2cnc(Cl)c(Cl)c2)c2ccon2)c(Cl)n1 (stereo not shown)
OUTPUT: 2.37

INPUT: Any idea what its logP is? The molecule is COc1cccc(C(NC(=O)c2c(OC(C)C)cc(C)nc2Br)c2ccon2)c1 (stereo not shown)
OUTPUT: 2.16

INPUT: Any idea what its logP is? The molecule is COc1ccc(C(NC(=O)c2cnn(C)c2Cl)c2ccon2)c(F)c1 (racemic)
OUTPUT: 1.8

INPUT: Any idea what its logP is? The molecule is COc1cccc(C(NC(=O)c2nsc(Cl)c2Cl)c2ccon2)c1 (racemic)
OUTPUT: 3.44

INPUT: Any idea what its logP is? The molecule is Cc1ncc(C(=O)NC(c2ccc(Cl)cc2)c2ccon2)c(C)c1Br (stereo not shown)
OUTPUT: 2.63

INPUT: Any idea what its logP is? The molecule is COc1ccc(C(NC(=O)c2cnccc2OC)c2ccon2)c(F)c1 (stereo not shown)
OUTPUT: 1

INPUT: Any idea what its logP is? The molecule is CCCOc1cc(C)nc(Cl)c1C(=O)NC(c1cnc(Cl)c(Cl)c1)c1ccon1 (stereo not shown)
OUTPUT: 2.45

INPUT: Any idea what its logP is? The molecule is COc1c(C(=O)NC(c2ccc(Cl)cc2)c2ccon2)csc1Br (stereo not shown)
OUTPUT: 3.64

INPUT: Any idea what its logP is? The molecule is O=C(NC(c1ccc(Cl)cc1)c1ccon1)c1ncn(Cc2ccccc2)c1[N+](=O)[O-] (stereo not shown)
OUTPUT: 2.63

INPUT: Any idea what its logP is? The molecule is COc1c(C(=S)NC(c2ccc(Cl)cc2)c2ccon2)csc1Br (stereo not shown)
OUTPUT: 4.51

INPUT: Any idea what its logP is? The molecule is Cc1cc(OC(C)C)c(C(=O)NC(c2cnc(Cl)c(Cl)c2)c2ccon2)c(Br)n1 (stereo not shown)
OUTPUT: 2.51

INPUT: Any idea what its logP is? The molecule is COc1ccncc1C(=O)NC(c1ccc(F)c(F)c1)c1ccon1 (stereo not shown)
OUTPUT: 1.07

INPUT: Any idea what its logP is? The molecule is COc1ccc(C(NC(=O)c2c(OC(C)C)cc(C)nc2Cl)c2ccon2)c(F)c1 (stereo not shown)
OUTPUT: 2.18

INPUT: Any idea what its logP is? The molecule is COc1ccc(C(NC(=O)c2cnc(C)c(Br)c2C)c2ccon2)c(F)c1 (stereo not shown)
OUTPUT: 2.28

INPUT: Any idea what its logP is? The molecule is Cc1cc(OC(C)C)c(C(=O)NC(c2ccc(F)c(F)c2)c2ccon2)c(Cl)n1 (racemic)
OUTPUT: 2.26

INPUT: Any idea what its logP is? The molecule is CCCOc1cc(C)nc(Br)c1C(=O)NC(c1ccc(Cl)cc1)c1ccon1 (stereo not shown)
OUTPUT: 2.63

INPUT: Any idea what its logP is? The molecule is CCCOc1cc(C)nc(Br)c1C(=O)NC(c1cnc(Cl)c(Cl)c1)c1ccon1 (stereo not shown)
OUTPUT: 2.6

INPUT: Any idea what its logP is? The molecule is COc1ccncc1C(=O)NC(c1ccc(Cl)cc1)c1ccon1 (stereo not shown)
OUTPUT: 1.18

INPUT: Any idea what its logP is? The molecule is COc1ccc(C(NC(=S)c2cnn(C)c2Cl)c2ccon2)c(F)c1 (stereo not shown)
OUTPUT: 1.76
